- Target: baculovirus-expressed ALK (Homo sapiens, UniProt Q9UM73); note: 1 µM ATP (Km level)
- Sequence (Q9UM73 19-1620): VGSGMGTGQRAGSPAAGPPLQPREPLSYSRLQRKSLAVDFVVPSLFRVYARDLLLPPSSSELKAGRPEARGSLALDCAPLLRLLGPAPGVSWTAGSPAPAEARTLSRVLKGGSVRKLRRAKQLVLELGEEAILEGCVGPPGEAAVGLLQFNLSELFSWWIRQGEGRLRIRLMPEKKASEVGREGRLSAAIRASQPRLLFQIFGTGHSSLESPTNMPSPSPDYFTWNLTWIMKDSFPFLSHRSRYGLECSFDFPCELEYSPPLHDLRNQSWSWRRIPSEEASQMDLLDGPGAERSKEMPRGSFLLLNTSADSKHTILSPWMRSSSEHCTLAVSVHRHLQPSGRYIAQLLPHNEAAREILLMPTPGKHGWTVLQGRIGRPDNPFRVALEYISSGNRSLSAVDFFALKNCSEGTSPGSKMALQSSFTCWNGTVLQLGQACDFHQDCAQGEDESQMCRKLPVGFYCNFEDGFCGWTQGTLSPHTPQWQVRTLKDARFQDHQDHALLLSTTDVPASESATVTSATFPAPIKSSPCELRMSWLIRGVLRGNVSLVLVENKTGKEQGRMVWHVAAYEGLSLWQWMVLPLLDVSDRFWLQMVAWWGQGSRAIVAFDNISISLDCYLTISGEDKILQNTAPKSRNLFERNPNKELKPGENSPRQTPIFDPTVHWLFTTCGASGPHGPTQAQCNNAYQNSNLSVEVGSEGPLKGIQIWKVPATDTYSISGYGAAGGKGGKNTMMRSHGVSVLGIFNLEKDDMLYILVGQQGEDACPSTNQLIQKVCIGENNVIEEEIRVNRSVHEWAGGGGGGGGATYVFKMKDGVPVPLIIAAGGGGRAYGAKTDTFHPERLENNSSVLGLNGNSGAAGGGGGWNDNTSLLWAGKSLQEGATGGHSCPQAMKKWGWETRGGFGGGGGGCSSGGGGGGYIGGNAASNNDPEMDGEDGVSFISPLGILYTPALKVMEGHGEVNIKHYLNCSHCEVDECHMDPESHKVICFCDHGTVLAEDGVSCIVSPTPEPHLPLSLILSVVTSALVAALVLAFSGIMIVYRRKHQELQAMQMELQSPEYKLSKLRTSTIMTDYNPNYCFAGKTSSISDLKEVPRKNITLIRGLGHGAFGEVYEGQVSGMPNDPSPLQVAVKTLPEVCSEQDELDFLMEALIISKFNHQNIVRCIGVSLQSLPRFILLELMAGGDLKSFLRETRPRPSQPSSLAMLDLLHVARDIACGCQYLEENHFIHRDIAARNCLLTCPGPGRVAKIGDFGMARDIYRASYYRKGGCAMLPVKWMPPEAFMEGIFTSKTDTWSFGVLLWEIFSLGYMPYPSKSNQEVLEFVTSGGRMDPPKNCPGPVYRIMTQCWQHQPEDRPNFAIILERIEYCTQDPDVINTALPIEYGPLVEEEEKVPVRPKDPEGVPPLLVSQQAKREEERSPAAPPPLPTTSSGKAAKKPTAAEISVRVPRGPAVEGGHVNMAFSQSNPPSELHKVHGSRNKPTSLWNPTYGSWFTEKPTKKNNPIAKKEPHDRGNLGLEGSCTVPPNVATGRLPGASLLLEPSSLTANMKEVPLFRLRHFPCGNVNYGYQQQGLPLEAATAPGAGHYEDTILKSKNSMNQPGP
Observed property: IC50

Use these answered entries as a reference point.
Compound | IC50
O=C(c1cnc2c(c1)N(Cc1cc(Cl)ccc1Cl)CCN2)N1CCN(CCc2ccccc2)CC1 | 1000 to 10000 nM
O=C(NCCc1ccccn1)c1ccc(-c2cnc3c(c2)N(Cc2cc(Cl)ccc2C(F)(F)F)CCN3)cc1 | 100 to 1000 nM
O=C(NCCN1CCCC1)c1ccc(-c2cnc3c(c2)N(Cc2c(Cl)cccc2Cl)C(=O)CN3)cc1 | 100 to 1000 nM

Summary line: `O=C(c1ccccc1)N1CCNc2ncc(-c3ccc(NS(=O)(=O)CCN4CCCC4)cc3)cc21` , baculovirus-expressed ALK (Homo sapiens, UniProt Q9UM73), reported IC50 = 10000 to 100000 nM

Summary line: `O=C(NCCOc1ccccc1)c1cnc2c(c1)N(Cc1cc(Cl)ccc1Cl)CCN2` , baculovirus-expressed ALK (Homo sapiens, UniProt Q9UM73), reported IC50 = 10000 to 100000 nM

Summary line: `O=C(c1ccc(-c2cnc3c(c2)N(Cc2ccccc2)CCN3)cc1)N1CCC(N2CCCC2)CC1` , baculovirus-expressed ALK (Homo sapiens, UniProt Q9UM73), reported IC50 = 1000 to 10000 nM

Summary line: `CC(=O)c1ccc(-c2cnc3c(c2)N(Cc2ccccc2)C(=O)CN3)cc1` , baculovirus-expressed ALK (Homo sapiens, UniProt Q9UM73), reported IC50 = 10000 to 100000 nM

Summary line: `O=C(NC1Cc2ccccc2C1)c1cnc2c(c1)N(Cc1cc(Cl)ccc1Cl)CCN2` , baculovirus-expressed ALK (Homo sapiens, UniProt Q9UM73), reported IC50 = 1000 to 10000 nM

Summary line: `O=C(c1ccc(-c2cnc3c(c2)N(Cc2cccnc2Cl)CCN3)cc1)N1CCC(N2CCCC2)CC1` , baculovirus-expressed ALK (Homo sapiens, UniProt Q9UM73), reported IC50 = > 100000 nM

Every entry's value here was drawn from patent US7601716B2.
